# Assay info: Half life in Sprague-Dawley rat at 10 mg/kg, po
# Assay type: ADME, organism-based
# Parameters: dose 10 mg/kg, route oral
# Stated conditions: in vivo
Please provide measured half-life for the entries that follow.
Give just the numeric value; h need not be written.

compound COc1ccc2c(O[C@@H]3C[C@H]4C(=O)N[C@]5(C(=O)NS(=O)(=O)C6CC6)C[C@H]5/C=C\CCCCN(C)C(=O)[C@@H]4C3)cc(-c3cccc(C(C)C)n3)nc2c1C , half-life observed: 5.8

compound COc1ccc2c(O[C@@H]3C[C@H]4C(=O)N[C@]5(C(=O)NS(=O)(=O)C6CC6)C[C@H]5/C=C\CCCCN(C)C(=O)[C@@H]4C3)cc(-c3nc(C(C)C)cs3)nc2c1C , half-life observed: 2.8

compound COc1ccc2c(O[C@@H]3C[C@H]4C(=O)N[C@]5(C(=O)NS(=O)(=O)C6CC6)C[C@H]5/C=C\CCCCN(C)C(=O)[C@@H]4C3)cc(-n3ccc(C(C)C)n3)nc2c1C , half-life observed: 2.2

====

Please provide measured Ki for the entries that follow.
# Assay info: Inhibition of recombinant full length HCV NS3/4A protease
# Design: species or system Hepacivirus hominis
Give just the numeric value; nM need not be written.

molecule COc1ccc2c(O[C@@H]3C[C@H]4C(=O)N[C@]5(C(=O)NS(=O)(=O)C6CC6)C[C@H]5/C=C\CCCCN(C)C(=O)[C@@H]4C3)cc(-c3csc(NC(C)C)n3)nc2c1 , Ki observed: 1.4

molecule COc1ccc2c(O[C@@H]3C[C@H]4C(=O)N[C@]5(C(=O)NS(=O)(=O)C6CC6)C[C@H]5/C=C\CCCCN(C)C(=O)[C@@H]4C3)cc(-c3nc(C(C)C)cs3)nc2c1 , Ki observed: 0.84

molecule COc1ccc2c(O[C@@H]3C[C@H]4C(=O)N[C@]5(C(=O)NS(=O)(=O)C6CC6)C[C@H]5/C=C\CCCCN(C)C(=O)[C@@H]4C3)cc(-c3nc(C(C)C)cs3)nc2c1F , Ki observed: 0.55

====

# Tested on: Hepatitis C virus
# Assay info: Antiviral activity against HCV in human Huh7 cells assessed as luciferase activity
# Assay type: functional, organism-based, Hepacivirus hominis
# Stated conditions: Huh-7
Parameter measured: pEC50
// pEC50: -log10(molar conc.)

Measured on Hepatitis C virus, COc1ccc2c(O[C@@H]3C[C@H]4C(=O)N[C@]5(C(=O)NS(=O)(=O)C6CC6)C[C@H]5/C=C\CCCCN(C)C(=O)[C@@H]4C3)cc(-c3nc(C(C)C)cs3)nc2c1 has a documented pEC50 of 7.77

Measured on Hepatitis C virus, COc1ccc2c(O[C@@H]3C[C@H]4C(=O)N[C@]5(C(=O)NS(=O)(=O)C6CC6)C[C@H]5/C=C\CCCCN(C)C(=O)[C@@H]4C3)cc(-n3ccc(C(C)C)n3)nc2c1C has a documented pEC50 of 8.01

Measured on Hepatitis C virus, COc1ccc2c(O[C@@H]3C[C@H]4C(=O)N[C@]5(C(=O)NS(=O)(=O)C6CC6)C[C@H]5/C=C\CCCCN(C)C(=O)[C@@H]4C3)cc(-c3cccc(C(C)C)n3)nc2c1C has a documented pEC50 of 8.17

Measured on Hepatitis C virus, COc1ccc2c(O[C@@H]3C[C@H]4C(=O)N[C@]5(C(=O)NS(=O)(=O)C6CC6)C[C@H]5/C=C\CCCCN(C)C(=O)[C@@H]4C3)cc(-c3csc(NC(C)C)n3)nc2c1 has a documented pEC50 of 7.77

Measured on Hepatitis C virus, COc1ccc2c(O[C@@H]3C[C@H]4C(=O)N[C@]5(C(=O)NS(=O)(=O)C6CC6)C[C@H]5/C=C\CCCCN(C)C(=O)[C@@H]4C3)cc(-c3nc(C(C)C)cs3)nc2c1F has a documented pEC50 of 7.24
